assayedSystem: HLA-A*32:15
method: IEDB peptide-MHC binding, purified MHC/competitive/fluorescence; filed as Kd, often an IC50 or EC50 that approximates it; bounds were set here for any values at or beyond the usual limits of such assays
conditionDescription: source organism: Entamoeba histolytica
propertyName: Kd (µM)
Field format: number, assumed µM, no unit text.

Reported Kd for `SYMSTFPLF` was 0.784

----------
assayedSystem: HLA-A*03:01
method: IEDB peptide-MHC binding, purified MHC/direct/fluorescence; filed as Kd, often an IC50 or EC50 that approximates it; bounds were set here for any values at or beyond the usual limits of such assays
conditionDescription: source organism: Salmonella enterica
pKd: −log10 of the molar value.
propertyName: pKd

Reported pKd for `WTDLYTSMS` was ≤ 4.70

----------
Give measured pKd for each item. Keep answers brief.
assayedSystem: HLA-B*15:01
method: IEDB peptide-MHC binding, purified MHC/competitive/fluorescence; filed as Kd, often an IC50 or EC50 that approximates it; bounds were set here for any values at or beyond the usual limits of such assays
conditionDescription: source organism: Zaire ebolavirus
pKd: −log10 of the molar value.

Reported pKd for `GLSFLNPEK` was ≤ 4.70

Reported pKd for `FPSNMMVVT` was ≤ 4.70

----------
assayedSystem: HLA-A*02:03
method: IEDB peptide-MHC binding, purified MHC/competitive/radioactivity; filed as Kd, often an IC50 or EC50 that approximates it; bounds were set here for any values at or beyond the usual limits of such assays
conditionDescription: source organism: Dengue virus 4 Philippines/H241/1956
propertyName: Kd
I'd appreciate it if you included the unit after the number.

Reported Kd for `VLSIPPTAGI` was 226 nM

Reported Kd for `MVIGMAMTTV` was 0.14 nM

----------
assayedSystem: HLA-A*03:01
method: IEDB peptide-MHC binding, purified MHC/direct/fluorescence; filed as Kd, often an IC50 or EC50 that approximates it; bounds were set here for any values at or beyond the usual limits of such assays
conditionDescription: source organism: Rickettsia prowazekii
pKd: −log10 of the molar value.
propertyName: pKd

Reported pKd for `NLKLYGAEF` was ≤ 4.70

----------
assayedSystem: HLA-C*14:02
method: IEDB peptide-MHC binding, purified MHC/direct/fluorescence; filed as Kd, often an IC50 or EC50 that approximates it; bounds were set here for any values at or beyond the usual limits of such assays
conditionDescription: source organism: Variola major virus
propertyName: pKd
Convention used: pKd is expressed as -log10 of the molar concentration.

Reported pKd for `RYPGVMYAF` was 7.80

----------
Give measured IC50 for each item. Keep answers brief.
assayedSystem: HLA-A*24:02
method: IEDB peptide-MHC binding, purified MHC/competitive/fluorescence; bounds were set here for any values at or beyond the usual limits of such assays
conditionDescription: source organism: Sudan ebolavirus

HLA-A*24:02 data for `RWGFRSGVP` ; its IC50: 16.7 µM

HLA-A*24:02 data for `FQLNDTIHL` ; its IC50: 36.9 µM

HLA-A*24:02 data for `TVIYRGVNF` ; its IC50: 3.58 µM

HLA-A*24:02 data for `SFFVWVIIL` ; its IC50: ≥ 72.5 µM

HLA-A*24:02 data for `ITTAVKTVL` ; its IC50: 37.4 µM

----------
assayedSystem: HLA-B*15:01
method: IEDB peptide-MHC binding, purified MHC/direct/fluorescence; filed as Kd, often an IC50 or EC50 that approximates it; bounds were set here for any values at or beyond the usual limits of such assays
conditionDescription: source organism: Mycobacterium tuberculosis C
propertyName: Kd

Reported Kd for `FPRYPLNVL` was ≥ 20 µM

Where these numbers come from: the Immune Epitope Database (IEDB)
